Where do the numbers come from? From patent US11414442B2.

- assay explanation: Solubility in water and PBS pH 7.4 (Tables 1 and 2)
- Assay type: physicochemical
- measurement conditions: aqueous buffer; Table 1; PBS pH 7.4; read-out: Solubility PBS pH 7.4
Binary classification by solubility, with 40 µM as an inclusive lower bound for rule met; all other cases are rule not met.

The examples below pair each entry with its known result.
substance_smiles=O=c1cc(-c2ccc([N+](=O)[O-])cc2O)n2nc(C3CC3)c(-c3ccc(Cl)c(Cl)c3)c2[nH]1 class="rule not met"
substance_smiles=O=c1cc(-c2ccccc2O)n2nc(CN3CCOCC3)c(-c3ccc(Cl)cc3)c2[nH]1 class="rule met"
substance_smiles=N#Cc1ccc(-c2cc(=O)[nH]c3c(-c4ccc(Cl)c(Cl)c4)c(C4CC4)nn23)c(O)c1 class="rule not met"

Problem: Could you tell me if the measured solubility of O=c1cc(-c2ccc(F)cc2O)n2nc(C(F)(F)F)c(-c3ccc(Cl)cc3)c2[nH]1 reaches 40 µM or more?
Result: rule met

Problem: Check this compound for solubility at or above 40 µM: O=c1cc(-c2ccc(F)cc2O)n2nc(C(F)(F)F)c(-c3ccc(Cl)c(Cl)c3)c2[nH]1
Result: rule not met

Problem: Given O=c1cc(-c2ccc(Cl)cc2O)n2nc(C3CC3)c(-c3ccc(Cl)c(Cl)c3)c2[nH]1 , state whether its solubility is at least 40 µM.
Result: rule not met

Problem: Does the reported solubility for O=c1cc(-c2ccccc2O)n2nc(C(F)(F)F)c(-c3ccc(Cl)cc3)c2[nH]1 fall at or above the 40 µM mark?
Result: rule met

Problem: Evaluate O=c1cc(-c2ccccc2O)n2nc(C(F)(F)F)c(C3CCCCC3)c2[nH]1 : solubility at minimum 40 µM?
Result: rule met

----------
- assay explanation: Solubility of ARF6 prodrugs in various vehicles (Table 4)
- Format: physicochemical
- measurement conditions: 0.1% Tween 80 in D5W, aqueous with cosolvent or surfactant or cyclodextrin, kinetic from dmso stock; diluted from 10 mM solution in DMSO; read-out: Solubility (μM) 0.1% Tween 80 in D5W
Counter-ions that a name gives are not always drawn.
measured property: solubility (µM)
Note: unit µM is implicit; provide only the numeric part.

compound="C[C@H](N)C(=O)Oc1cc([N+](=O)[O-])ccc1-c1cc(=O)[nH]c2c(-c3ccc(Cl)cc3)c(Cc3ccccc3)nn12.O=C(O)C(F)(F)F [Example V]" unit_string=µM reading=5.4

Then this compound:
Problem: Note down solubility recorded for NCCCC[C@H](N)C(=O)Oc1cc([N+](=O)[O-])ccc1-c1cc(=O)[nH]c2c(-c3ccc(Cl)cc3)c(Cc3ccccc3)nn12 [NAV-B, dihydrochloride]
Result: 42

----------
- assay explanation: Solubility of ARF6 prodrugs in various vehicles (Table 4)
- Format: physicochemical
- measurement conditions: saline or isotonic, thermodynamic from solid; D5W, prepared from powder; read-out: Solubility (μM) D5W Prepared from powder
Where a name gives a salt, the structure may show the parent alone.
The entries below are paired with their reported solubility.
Report the figure in µM without appending any unit label.

compound="NCCCC[C@H](N)C(=O)Oc1cc([N+](=O)[O-])ccc1-c1cc(=O)[nH]c2c(-c3ccc(Cl)cc3)c(Cc3ccccc3)nn12 [NAV-B, dihydrochloride]" measured_property=solubility reading=14000

Alright, here's another compound for you.
Problem: Determine from records and report solubility for C[C@H](N)C(=O)Oc1cc([N+](=O)[O-])ccc1-c1cc(=O)[nH]c2c(-c3ccc(Cl)cc3)c(Cc3ccccc3)nn12.O=C(O)C(F)(F)F
Result: 20
